Source: ChEMBL document CHEMBL1138836

- RUN_DESCRIPTION: Bioavailability of compound at 3 mg/kg in monkey […]
- Type: ADME, organism-based
- CONDITIONS: cercopithecidae, in vivo, iv
EXPERIMENTAL_READOUT: bioavailability (%)
Numbers only; they are read as %.

-- ask Entry under review: "Cc1nccn1-c1ccc(COc2cc(F)cc(C3(C(N)=O)CCOCC3)c2)cc1" . Reported bioavailability?
-- reply 88

###

- RUN_DESCRIPTION: Bioavailability of compound at 3 mg/kg in rat […]
- Assay type: ADME, organism-based
- CONDITIONS: in vivo, iv
EXPERIMENTAL_READOUT: bioavailability (%)
Numbers only; they are read as %.

-- ask Entry under review: "Cc1nccn1-c1ccc(COc2cc(F)cc(C3(C(N)=O)CCOCC3)c2)cc1" . Reported bioavailability?
-- reply 102

###

- RUN_DESCRIPTION: Bioavailability of compound at 3 mg/kg in guinea pig […]
- Type: ADME, organism-based, Cavia porcellus
- CONDITIONS: in vivo, iv
EXPERIMENTAL_READOUT: bioavailability (%)
Numbers only; they are read as %.

-- ask Entry under review: "Cc1nccn1-c1ccc(COc2cc(F)cc(C3(C(N)=O)CCOCC3)c2)cc1" . Reported bioavailability?
-- reply 108

###

- RUN_DESCRIPTION: Oral bioavailability of compound at 5 mg/kg in monkey
- Format: ADME, organism-based
- CONDITIONS: cercopithecidae, in vivo
EXPERIMENTAL_READOUT: bioavailability (%)
Numbers only; they are read as %.

-- ask Entry under review: "Cc1nccn1-c1ccc(COc2cc(F)cc(C3(C(N)=O)CCOCC3)c2)cc1" . Reported bioavailability?
-- reply 88

###

- System: Mus musculus
- RUN_DESCRIPTION: In vivo potency was determined after oral administration to mice by the PAF (platelet activating factor) induced thrombosis assay
- Format: functional
Reported ED50 values are given for each entry in this list.
Numbers only; they are read as mg/kg.

Answered cases to consult:
test_smiles=CCOC(=O)C1(c2cc(F)cc(OCc3ccc(-n4ccnc4C)cc3)c2)CCOCC1 measurement_units=mg/kg assay_value=16
test_smiles=CNC(=O)C1(c2cc(F)cc(OCc3ccc(-n4ccnc4C)cc3)c2)CCOCC1 measurement_units=mg/kg assay_value=13
test_smiles=CSC1(c2cc(F)cc(OCc3ccc(-n4ccnc4C)cc3)c2)CCOCC1 measurement_units=mg/kg assay_value=5
test_smiles=CC(=O)C1(c2cc(F)cc(OCc3ccc(-n4ccnc4C)cc3)c2)CCOCC1 measurement_units=mg/kg assay_value=12
test_smiles=COC1(c2cc(F)cc(OCc3ccc(-n4ccnc4C)cc3)c2)CCOCC1 measurement_units=mg/kg assay_value=2

-- ask Entry under review: "CCOC1(c2cc(F)cc(OCc3ccc(-n4ccnc4C)cc3)c2)CCOCC1" . Reported ED50?
-- reply 5

###

- RUN_DESCRIPTION: Bioavailability of compound at 10 mg/kg in rat after oral administration
- Format: ADME, organism-based
- CONDITIONS: in vivo
EXPERIMENTAL_READOUT: bioavailability (%)
Numbers only; they are read as %.

-- ask Entry under review: "Cc1nccn1-c1ccc(COc2cc(F)cc(C3(C(N)=O)CCOCC3)c2)cc1" . Reported bioavailability?
-- reply 102

###

- RUN_DESCRIPTION: Bioavailability of compound at 10 mg/kg in guinea pig after oral administration
- CONDITIONS: in vivo
EXPERIMENTAL_READOUT: bioavailability (%)
Numbers only; they are read as %.

-- ask Entry under review: "Cc1nccn1-c1ccc(COc2cc(F)cc(C3(C(N)=O)CCOCC3)c2)cc1" . Reported bioavailability?
-- reply 108

###

- EXPERIMENTAL_TARGET: Polyunsaturated fatty acid 5-lipoxygenase (Homo sapiens, UniProt P09917)
- Sequence (P09917 whole entry): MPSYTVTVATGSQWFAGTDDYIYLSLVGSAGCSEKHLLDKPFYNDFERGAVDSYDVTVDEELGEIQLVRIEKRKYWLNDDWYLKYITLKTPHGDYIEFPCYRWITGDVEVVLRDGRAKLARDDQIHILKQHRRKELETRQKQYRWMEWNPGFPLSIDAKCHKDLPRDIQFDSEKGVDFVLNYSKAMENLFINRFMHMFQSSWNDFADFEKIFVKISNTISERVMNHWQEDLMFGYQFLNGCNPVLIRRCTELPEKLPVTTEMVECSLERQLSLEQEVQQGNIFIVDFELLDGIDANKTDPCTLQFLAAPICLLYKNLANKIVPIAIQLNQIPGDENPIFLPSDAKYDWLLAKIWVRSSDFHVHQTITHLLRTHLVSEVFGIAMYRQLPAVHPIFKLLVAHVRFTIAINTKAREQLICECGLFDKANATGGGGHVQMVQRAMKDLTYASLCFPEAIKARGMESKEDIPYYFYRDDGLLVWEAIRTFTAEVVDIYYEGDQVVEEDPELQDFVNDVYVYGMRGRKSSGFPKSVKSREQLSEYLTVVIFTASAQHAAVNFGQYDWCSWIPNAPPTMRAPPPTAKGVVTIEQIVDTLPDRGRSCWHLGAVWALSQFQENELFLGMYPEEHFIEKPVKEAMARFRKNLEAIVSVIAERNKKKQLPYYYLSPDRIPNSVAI
- RUN_DESCRIPTION: Inhibition of 5-Lipoxygenase (5-LO) of human whole blood (HWB)
Sorting guide: entries reporting IC50 beneath 300 nM go in the Met pile, the rest go in the Not met pile.

compound=CSC1(c2cc(F)cc(OCc3ccc(-n4ccnc4C)cc3)c2)CCOCC1 discrete_label=Met

-- ask Item "CC(=O)C1(c2cc(F)cc(OCc3ccc(-n4ccnc4C)cc3)c2)CCOCC1" : IC50 beneath 300 nM, strictly?
-- reply Met

###

- RUN_DESCRIPTION: Maximum concentration of compound found in plasma at 5 mg/kg after oral administration
- Format: ADME, organism-based
- Design: dose 5 mg/kg, route oral
- CONDITIONS: cercopithecidae
EXPERIMENTAL_READOUT: Cmax (ng/mL)
Numbers only; they are read as ng/mL.

-- ask Entry under review: "Cc1nccn1-c1ccc(COc2cc(F)cc(C3(C(N)=O)CCOCC3)c2)cc1" . Reported Cmax?
-- reply 1570

###

- EXPERIMENTAL_TARGET: Polyunsaturated fatty acid 5-lipoxygenase (Homo sapiens)
- RUN_DESCRIPTION: Inhibition of 5-Lipoxygenase (5-LO) of human whole blood (HWB)
Reported pIC50 values are given for each entry in this list.
Expect pIC50 as a plain number equal to -log10 of the molar concentration.

Answered cases to consult:
test_smiles=COC1(c2cc(F)cc(OCc3ccc(-n4ccnc4C)cc3)c2)CCOCC1 assay_value=7.22
test_smiles=CCOC(=O)C1(c2cc(F)cc(OCc3ccc(-n4ccnc4C)cc3)c2)CCOCC1 assay_value=6.70
test_smiles=CCOC1(c2cc(F)cc(OCc3ccc(-n4ccnc4C)cc3)c2)CCOCC1 assay_value=7.10
test_smiles=CNC(=O)C1(c2cc(F)cc(OCc3ccc(-n4ccnc4C)cc3)c2)CCOCC1 assay_value=6.55
test_smiles=Cc1nccn1-c1ccc(COc2cc(F)cc(C3(C(=O)N(C)C)CCOCC3)c2)cc1 assay_value=6.09

-- ask Entry under review: "Cc1nccn1-c1ccc(COc2cc(F)cc(C3(C(N)=O)CCOCC3)c2)cc1" . Reported pIC50?
-- reply 6.47

###

- EXPERIMENTAL_TARGET: Polyunsaturated fatty acid 5-lipoxygenase (Homo sapiens, UniProt P09917)
- RUN_DESCRIPTION: Inhibition of 5-Lipoxygenase (5-LO) of human whole blood (HWB)
Reported IC50 values are given for each entry in this list.

Answered cases to consult:
compound=Cc1nccn1-c1ccc(COc2cc(F)cc(C3(C(=O)O)CCOCC3)c2)cc1 assay_value="> 1000 nM"
compound="Cc1nccn1-c1ccc(COc2cc(F)cc(C3([S+](C)[O-])CCOCC3)c2)cc1 (centres undefined)" assay_value="> 1000 nM"
compound=Cc1nccn1-c1ccc(COc2cc(F)cc(C3(S(C)(=O)=O)CCOCC3)c2)cc1 assay_value="> 1000 nM"

-- ask Entry under review: "Cc1nccn1-c1ccc(COc2cc(F)cc(C3(O)CCOCC3)c2)cc1" . Reported IC50?
-- reply > 1000 nM
